Measured values drawn from the supplement of paper PMC10065799 for this set.

tested system: Fyn (UniProt P06241)
Sequence (P06241 whole entry, looked up): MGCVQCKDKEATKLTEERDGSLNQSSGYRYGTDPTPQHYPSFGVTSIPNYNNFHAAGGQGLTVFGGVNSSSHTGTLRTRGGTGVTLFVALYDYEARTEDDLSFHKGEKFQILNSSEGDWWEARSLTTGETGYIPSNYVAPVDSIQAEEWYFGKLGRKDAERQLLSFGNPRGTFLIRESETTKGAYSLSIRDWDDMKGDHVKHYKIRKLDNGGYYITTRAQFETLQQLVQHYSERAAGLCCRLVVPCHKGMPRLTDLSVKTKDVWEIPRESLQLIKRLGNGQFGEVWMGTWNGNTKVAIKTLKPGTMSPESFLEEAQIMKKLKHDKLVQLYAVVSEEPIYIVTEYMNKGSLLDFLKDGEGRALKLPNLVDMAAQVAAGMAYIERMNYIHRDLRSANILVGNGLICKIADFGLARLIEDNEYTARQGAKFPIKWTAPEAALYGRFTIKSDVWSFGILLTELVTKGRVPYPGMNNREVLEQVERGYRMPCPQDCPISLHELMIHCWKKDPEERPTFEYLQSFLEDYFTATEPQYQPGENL
assay explanation: phosphorylation enrichment, bacterial display (enrichment ratio); higher = better substrate or ligand; peptides without Tyr show the background
reported property: phosphorylation enrichment
Please state the value as a number alone, without comment.

Lab note: sequence MAPQMYESHLP [NCAPD2_Y6_F8S] tested on Fyn (UniProt P06241); recorded phosphorylation enrichment was 0.45

# value of phosphorylation enrichment, Fyn (UniProt P06241), item IVKAYYVHARA [AIPL1_Y268_R270H] = 0.424

GET /values?item= LKFAIYFEARE [LAMA2_Y1258_YF] &system= Fyn (UniProt P06241) returns phosphorylation enrichment: 1.29

Entry TGILLHGLASR [QARS1_Y57_Y57H] ; assay system Fyn (UniProt P06241); phosphorylation enrichment recorded at 0.281

The reported Fyn (UniProt P06241) phosphorylation enrichment of TTICKYITPME [GUCY2C_Y839_S840I] is 0.418

Query FEGRSYSACTT [MMP9_Y241] on Fyn (UniProt P06241); phosphorylation enrichment returned: 0.541

Measured phosphorylation enrichment (Fyn (UniProt P06241)), entry IIEDPYYGNDS [ACP1_Y132] : 0.958

Tested system Fyn (UniProt P06241); phosphorylation enrichment recorded for EYLHKYKGFKI [SYNE1_Y6953_Q6951H] was 0.461

Considering KRLDGYVLEGW [IGSF9_Y656_R661W] , its phosphorylation enrichment with Fyn (UniProt P06241) was recorded as 0.484

Entry LIHLHYIRKDF [BBS4_Y43_YF] , tested on Fyn (UniProt P06241), has a reported phosphorylation enrichment of 0.871

Reported Fyn (UniProt P06241) phosphorylation enrichment for item LLINKYGLSAH [SCP2_Y151] was 0.443

The measured phosphorylation enrichment that AGQEEYSAMRD [HRAS_Y64] showed for Fyn (UniProt P06241) is 0.462

Field phosphorylation enrichment (system: Fyn (UniProt P06241)) for entry LARDMHDKEYY [MET_Y1230_Y1230H] = 0.445

Form field phosphorylation enrichment for item NQLNDYIFSFD [RARS1_Y516_R512Q] on Fyn (UniProt P06241): 0.743

Bench note, Fyn (UniProt P06241): entry TFGVLYKARNK [CDK2_Y19_V18L_YF] , its phosphorylation enrichment = 0.421

The reported Fyn (UniProt P06241) phosphorylation enrichment of PRQRRYVFFFS [PTEN_Y174_S170R_YF] is 0.575

###

tested system: Grb2 SH2 (UniProt P62993)
Sequence (P62993 whole entry, looked up): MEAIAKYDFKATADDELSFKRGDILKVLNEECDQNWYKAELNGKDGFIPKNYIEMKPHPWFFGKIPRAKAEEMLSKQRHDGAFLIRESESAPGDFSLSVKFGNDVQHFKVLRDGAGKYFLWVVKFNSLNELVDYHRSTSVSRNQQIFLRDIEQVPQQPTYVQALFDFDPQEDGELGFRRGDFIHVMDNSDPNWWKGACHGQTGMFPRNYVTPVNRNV
assay explanation: SH2 binding enrichment of the phosphorylated peptide, bacterial display (enrichment ratio); higher = better substrate or ligand; peptides without Tyr show the background
Label scheme, based on SH2 binding enrichment: lo (below 0.8), mid (0.8 to below 0.9), hi (0.9 or more)

Hi, small favor: classify IEENGYNTYAS [FGF10_Y161] by its SH2 binding enrichment when you get a moment. lo

Assign a category based on measured SH2 binding enrichment for WVYNHYRWFIW [BRCA2_Y2624_I2627F] and give only the class name. hi

Please let me know in which category the item LNLKDYNLVGG [GNAQ_Y356_E355D] belongs. mid

Sort into band: VIKDKYPKVRF [APTX_Y209_A212V_YF] hi

Which class does HPFHVYSQPGM [BAG3_Y114_P115S] fall in? hi

Which category does the recorded SH2 binding enrichment put IFHLSYLHNCE [PDE6B_Y227_YF] in? hi

Kindly state the category for this sequence: LKGQVYILGRE [ASS1_Y359] mid

Hello team, could you let me know which band the following sequence falls into: SVTCPYSPALN [TP53_Y126_T125P] hi

Which category does the recorded SH2 binding enrichment put EKSREYHRLYE [PIK3R1_Y463_D464H] in? lo

Exercise: read the entry TDTQLYGRFGS [ITGA2B_Y384_G380D] and state which class it falls under. lo

GET /class?item= RRIYSYRGHLW [VHL_Y112_H110Y] lo

###

tested system: Grb2 SH2 (UniProt P62993)
assay explanation: SH2 binding enrichment of the phosphorylated peptide, bacterial display (enrichment ratio); higher = better substrate or ligand; peptides without Tyr show the background
reported property: SH2 binding enrichment
Keep it simple and answer with nothing but the number.

The sequence listed as LRGEDCGFSVD [PRKCI_Y430_Y430C] has a reported SH2 binding enrichment of 0.925

// SH2 binding enrichment value for QMVRMYASSYM [AVPR2_Y124_G122R] : 0.899

Sample VIKDKYPQARY [APTX_Y209_K211Q] ; SH2 binding enrichment observed: 0.888

Field SH2 binding enrichment (entry VEDPEYAVTQP [STOML2_Y124_L129P] ) reads 0.877

Memo: YSPCDYQPCLA [TNS1_Y798_Y796C] , reported SH2 binding enrichment: 0.874

For HLWRIYFDITD [MMP27_Y307_YF] the sequence record lists SH2 binding enrichment as 0.877

Entry under test: FIPFRYPKEFQ [IDS_Y234_H229Y_YF] . Its SH2 binding enrichment was 0.876

###

tested system: Fes (UniProt P07332)
Sequence (P07332 whole entry, looked up): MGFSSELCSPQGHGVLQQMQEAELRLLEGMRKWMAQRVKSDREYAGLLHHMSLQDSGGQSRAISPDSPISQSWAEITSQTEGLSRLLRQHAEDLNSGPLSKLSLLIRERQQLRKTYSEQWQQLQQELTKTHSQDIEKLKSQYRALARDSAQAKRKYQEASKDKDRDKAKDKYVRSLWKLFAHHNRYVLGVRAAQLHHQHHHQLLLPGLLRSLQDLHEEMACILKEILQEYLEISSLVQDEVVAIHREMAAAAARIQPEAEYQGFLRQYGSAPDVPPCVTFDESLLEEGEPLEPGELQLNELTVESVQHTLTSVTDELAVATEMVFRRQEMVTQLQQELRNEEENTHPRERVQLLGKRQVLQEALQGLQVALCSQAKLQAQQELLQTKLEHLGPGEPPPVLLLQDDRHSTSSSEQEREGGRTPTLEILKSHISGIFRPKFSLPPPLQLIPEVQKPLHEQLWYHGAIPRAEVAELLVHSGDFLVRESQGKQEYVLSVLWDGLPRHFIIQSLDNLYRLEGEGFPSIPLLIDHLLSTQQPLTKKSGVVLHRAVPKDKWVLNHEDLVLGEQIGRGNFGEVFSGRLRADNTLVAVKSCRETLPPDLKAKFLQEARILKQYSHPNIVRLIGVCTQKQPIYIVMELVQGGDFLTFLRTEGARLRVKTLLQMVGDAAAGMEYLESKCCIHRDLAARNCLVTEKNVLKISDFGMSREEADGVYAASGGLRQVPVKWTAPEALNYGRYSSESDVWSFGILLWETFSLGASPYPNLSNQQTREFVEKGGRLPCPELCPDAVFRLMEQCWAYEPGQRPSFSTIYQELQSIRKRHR
assay explanation: phosphorylation enrichment, bacterial display (enrichment ratio); higher = better substrate or ligand; peptides without Tyr show the background
Field: phosphorylation enrichment. Provide a value for each of the sequences that follow.
Answer field: number only, no words.

Value of phosphorylation enrichment reported for the sequence KLQKYYRKNPD [EHHADH_Y683_Q685K] is 0.501

The sequence identified as EHTILYSNNST [KANSL1_Y223_T221I] registered its phosphorylation enrichment at 0.662

// sample DENCFYTRAAS [RPS19_Y54_W52C] , its phosphorylation enrichment was 0.936

Form: sequence = RGFRQYAFDGK [HLA-A_Y140_D140Y_YF] ; phosphorylation enrichment = 0.66

So for LERYIYNREEF [HLA-DPB1_Y59] , the logged phosphorylation enrichment turned out to be 1.24

Item: ESMLRYEVYGG [STOX1_Y607] | phosphorylation enrichment: 1.42

Input SGPRRYTIAAL [TTR_Y125] . Output phosphorylation enrichment: 0.579

###

Can you tell me phosphorylation enrichment for the items I'm about to list?
tested system: Fyn (UniProt P06241)
assay explanation: phosphorylation enrichment, bacterial display (enrichment ratio); higher = better substrate or ligand; peptides without Tyr show the background

Query YRNKPYISWPS [CDC42BPB_Y1638_S1633Y] yields phosphorylation enrichment of 0.41

response.value for KMGNIYRTEYG [MRPL3_Y265] (field: phosphorylation enrichment) = 0.475

phosphorylation enrichment for GNEEAYGSSHI [FAM171B_Y522_R524S] is 0.521

Recorded result, KNSFKYFMSDD [ATRX_Y203_C200S_YF] , phosphorylation enrichment: 0.392

###

tested system: Grb2 SH2 (UniProt P62993)
assay explanation: SH2 binding enrichment of the phosphorylated peptide, bacterial display (enrichment ratio); higher = better substrate or ligand; peptides without Tyr show the background
Give measured SH2 binding enrichment for each item. Keep answers brief.
# answer = number (no unit)

Kindly note the recorded SH2 binding enrichment for SRDPFYEMLTA [CYTH1_Y382_A386T] , which is 0.958

Data point: NPQKPYFIRLF [WAS_Y83_S82P_YF] ; SH2 binding enrichment = 0.919

Value of SH2 binding enrichment reported for the sequence VDASYYGGRGV [ANTXR2_Y381] is 0.738

Entry under test: NNFGNYNNQSS [HNRNPA1_Y318_D314N] . Its SH2 binding enrichment was 0.805

Measured SH2 binding enrichment, QEIATYRRQLE [KRT14_Y415_L418Q] : 0.768

Data point: IRKDLYSNNVL [ACTC1_Y296_A297S] ; SH2 binding enrichment = 0.836

// SH2 binding enrichment value for FMRGMYFRMTD [PLA2G6_Y541_K545T_YF] : 0.941

###

tested system: Jak2 (UniProt O60674)
Sequence (O60674 whole entry, looked up): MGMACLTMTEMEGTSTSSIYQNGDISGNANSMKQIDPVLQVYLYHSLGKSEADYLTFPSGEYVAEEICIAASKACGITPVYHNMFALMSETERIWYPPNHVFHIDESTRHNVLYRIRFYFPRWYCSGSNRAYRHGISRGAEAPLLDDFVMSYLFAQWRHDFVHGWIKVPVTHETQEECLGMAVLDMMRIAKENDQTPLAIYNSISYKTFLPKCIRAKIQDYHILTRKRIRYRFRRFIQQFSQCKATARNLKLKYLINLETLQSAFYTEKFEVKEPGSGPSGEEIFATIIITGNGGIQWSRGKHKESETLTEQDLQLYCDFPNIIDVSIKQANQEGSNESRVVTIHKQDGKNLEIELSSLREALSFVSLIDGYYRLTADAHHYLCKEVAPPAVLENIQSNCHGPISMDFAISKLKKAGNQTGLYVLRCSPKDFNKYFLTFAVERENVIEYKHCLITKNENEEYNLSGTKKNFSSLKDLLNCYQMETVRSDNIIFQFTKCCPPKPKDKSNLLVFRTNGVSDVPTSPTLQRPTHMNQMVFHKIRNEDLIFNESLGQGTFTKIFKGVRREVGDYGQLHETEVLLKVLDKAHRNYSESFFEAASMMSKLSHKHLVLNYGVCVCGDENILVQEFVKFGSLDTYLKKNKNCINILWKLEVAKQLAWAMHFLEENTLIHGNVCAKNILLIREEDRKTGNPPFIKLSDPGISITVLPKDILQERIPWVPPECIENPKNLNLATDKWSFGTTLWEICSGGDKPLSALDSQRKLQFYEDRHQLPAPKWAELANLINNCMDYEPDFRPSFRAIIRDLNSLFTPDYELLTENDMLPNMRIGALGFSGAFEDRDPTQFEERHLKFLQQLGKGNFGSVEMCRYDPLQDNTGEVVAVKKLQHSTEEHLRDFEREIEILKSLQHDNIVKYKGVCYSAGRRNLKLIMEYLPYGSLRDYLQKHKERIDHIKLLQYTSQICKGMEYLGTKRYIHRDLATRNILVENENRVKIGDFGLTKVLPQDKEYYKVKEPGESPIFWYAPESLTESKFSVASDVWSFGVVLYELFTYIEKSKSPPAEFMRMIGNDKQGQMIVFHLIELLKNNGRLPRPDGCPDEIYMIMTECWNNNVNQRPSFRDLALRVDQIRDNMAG
assay explanation: phosphorylation enrichment, bacterial display (enrichment ratio); higher = better substrate or ligand; peptides without Tyr show the background
reported property: phosphorylation enrichment
Answer as a number with no unit attached.

Kindly note the recorded phosphorylation enrichment for NDQANYSLNTD [ADA_Y290] , which is 0.981

// EDKSIYRRGAR [PRKCI_Y125] : phosphorylation enrichment value = 0.614

Entry under test: CTTIHYNFMCT [TP53_Y234_N239T_YF] . Its phosphorylation enrichment was 0.997

Entry FKDVTYLKEEK [UBE3A_Y127_T129K] ; phosphorylation enrichment = 0.986

###

tested system: c-Src SH2
assay explanation: SH2 binding enrichment of the phosphorylated peptide, bacterial display (enrichment ratio); higher = better substrate or ligand; peptides without Tyr show the background
Classification field: label 1 = SH2 binding enrichment at or over 0.6; label 0 = SH2 binding enrichment under 0.6.

Assess whether reported SH2 binding enrichment for QFQEKYKQMEQ [HCN4_Y531_V534M_YF] sits at 0.6 or higher. label 0

Please check the record KLLLKYSFHDV [RNF213_Y4141] and state if its SH2 binding enrichment is at or above 0.6. label 1

// inclusive: SH2 binding enrichment at least 0.6? input: SKQGKYLNWDA [ATM_Y54] label 1

Say whether LTSKPYAFTAR [NDUFS1_Y236] shows SH2 binding enrichment of 0.6 or more. label 0

Dear colleague, could you confirm whether CTTIHYNFMCT [TP53_Y234_N239T_YF] has SH2 binding enrichment at or above 0.6? label 1

State whether the measured SH2 binding enrichment reaches 0.6, counting equality as reaching it, for EAAFVYVISSA [WNT4_Y113_A114V] label 0

State whether the measured SH2 binding enrichment reaches 0.6, counting equality as reaching it, for SLQSEYVHYGG [CDC14A_Y591] label 0

Does the sequence KNRDVYSSDYF [USP24_Y2134] have recorded SH2 binding enrichment that is 0.6 or more? label 1

Please indicate if the recorded SH2 binding enrichment for FVHDNYVIQRT [CPS1_Y1450_R1453Q] meets or exceeds 0.6. label 1

Answer whether SH2 binding enrichment of TKDTFYKQPMF [GBA_Y451] is greater than or equal to 0.6. label 0

Please tell me: is the sequence ADGLEYPRTGL [MMUT_Y287_S288P] at or over 0.6 in terms of SH2 binding enrichment? label 0

Please tell me: is the sequence SRDPFYEMLTA [CYTH1_Y382_A386T] at or over 0.6 in terms of SH2 binding enrichment? label 1

Item LLREWYLQDPY [SIX3_Y225] with SH2 binding enrichment of 0.6 or above? label 1

Item VQDPAYLRDIN [OPRK1_Y369_D374N] with SH2 binding enrichment of 0.6 or above? label 0
